tested on: H1299 T18; assay: MTS cell viability assay, H1299 T18 resistant variant vs H1299 Parental; type: cell-based, human; settings: SR = [IC50 of Parental]/[IC50 of Resistant]; H1299 T18 vs H1299 Parental
recorded metric: H1299 T18 SR (Selectivity Ratio)

compound=O=C1C(=Cc2cccnc2)C(=O)c2ccccc21 target="H1299 T18" recorded_metric="H1299 T18 SR (Selectivity Ratio)" measured_number=1.0
compound=COc1ccc(CCc2nc3cc(-c4c(C)noc4C)ccc3n2C[C@H](C)N2CCOCC2)cc1Cl target="H1299 T18" recorded_metric="H1299 T18 SR (Selectivity Ratio)" measured_number=1.3
compound="Clc1ccc(N/N=C(/c2ccccc2)c2ccccn2)nc1 (single isomer, unassigned) [Z isomer (Inactive)]" target="H1299 T18" recorded_metric="H1299 T18 SR (Selectivity Ratio)" measured_number=1.1
compound="C/C=C1\\NC(=O)[C@H]2CSSCC/C=C/[C@H](CC(=O)N[C@H](C(C)C)C(=O)N2)OC(=O)[C@H](C(C)C)NC1=O [Depsipeptide]" target="H1299 T18" recorded_metric="H1299 T18 SR (Selectivity Ratio)" measured_number=0.05
compound=N.N.O=C([O-])C1(C(=O)[O-])CCC1.[Pt+2] target="H1299 T18" recorded_metric="H1299 T18 SR (Selectivity Ratio)" measured_number=0.8
compound=O=C(/C=C/N1C[C@H]2C[C@@H]1CN2c1ccccn1)c1ccccc1O target="H1299 T18" recorded_metric="H1299 T18 SR (Selectivity Ratio)" measured_number=1.1
compound=CC(=O)O[C@@]12CO[C@@H]1C[C@H](O)[C@@]1(C)C(=O)[C@H](O)C3=C(C)[C@@H](OC(=O)[C@H](O)[C@@H](NC(=O)OC(C)(C)C)c4ccccc4)C[C@@](O)([C@@H](OC(=O)c4ccccc4)[C@H]21)C3(C)C target="H1299 T18" recorded_metric="H1299 T18 SR (Selectivity Ratio)" measured_number=0.03
compound=O=C(/C=C/c1cccnc1)NCCCCC1CCN(C(=O)c2ccccc2)CC1 target="H1299 T18" recorded_metric="H1299 T18 SR (Selectivity Ratio)" measured_number=0.1
compound=CC/C(=C(\c1ccccc1)c1ccc(OCCN(C)C)cc1)c1ccccc1 target="H1299 T18" recorded_metric="H1299 T18 SR (Selectivity Ratio)" measured_number=1.0
compound=Clc1ccc(N/N=C(\c2ccccc2)c2ccccn2)nc1 target="H1299 T18" recorded_metric="H1299 T18 SR (Selectivity Ratio)" measured_number=20.3
compound="Nc1nccc2c1ncn2C1C=C(CO)C(O)C1O (stereo not shown)" target="H1299 T18" recorded_metric="H1299 T18 SR (Selectivity Ratio)" measured_number=0.5
compound=Oc1nc(-c2ccc(C(F)(F)F)cc2)nc2c1CSCC2 target="H1299 T18" recorded_metric="H1299 T18 SR (Selectivity Ratio)" measured_number=2.7
compound=CC(/C=C/C(=O)NO)=C\[C@@H](C)C(=O)c1ccc(N(C)C)cc1 target="H1299 T18" recorded_metric="H1299 T18 SR (Selectivity Ratio)" measured_number=1.8
compound=COc1cccc2c1C(=O)c1c(O)c3c(c(O)c1C2=O)C[C@@](O)(C(=O)CO)C[C@@H]3O[C@H]1C[C@H](N)[C@H](O)[C@H](C)O1 target="H1299 T18" recorded_metric="H1299 T18 SR (Selectivity Ratio)" measured_number=0.04
compound=CCc1c2c(nc3ccc(OC(=O)N4CCC(N5CCCCC5)CC4)cc13)-c1cc3c(c(=O)n1C2)COC(=O)[C@]3(O)CC target="H1299 T18" recorded_metric="H1299 T18 SR (Selectivity Ratio)" measured_number=1.1
compound=c1cc(SSc2ccns2)sn1 target="H1299 T18" recorded_metric="H1299 T18 SR (Selectivity Ratio)" measured_number=2.0

Values from patent US11497740B2
